Molecular target: Alpha-2C adrenergic receptor (Rattus norvegicus, UniProt P22086)
Sequence (P22086 whole entry): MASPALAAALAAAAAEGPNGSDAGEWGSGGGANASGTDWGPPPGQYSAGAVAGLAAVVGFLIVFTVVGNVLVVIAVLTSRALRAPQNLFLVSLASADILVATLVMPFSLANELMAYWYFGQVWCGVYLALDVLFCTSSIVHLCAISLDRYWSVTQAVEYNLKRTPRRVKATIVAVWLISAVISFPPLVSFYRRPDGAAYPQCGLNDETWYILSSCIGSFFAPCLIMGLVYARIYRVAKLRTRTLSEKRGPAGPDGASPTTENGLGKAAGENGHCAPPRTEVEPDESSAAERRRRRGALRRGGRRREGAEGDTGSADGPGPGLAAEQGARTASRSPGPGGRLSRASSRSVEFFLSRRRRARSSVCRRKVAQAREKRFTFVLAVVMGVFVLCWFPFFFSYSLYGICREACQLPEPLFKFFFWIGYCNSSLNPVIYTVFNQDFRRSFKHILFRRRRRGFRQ

[
  {
    "Mol": "c1cc2c(c(N3CCNCC3)c1)OCCO2",
    "Ki [µM]": 3.1
  }
]

Recorded values, source BindingDB's records for doi:10.1515/dmdi.1990.8.1-2.85.
